Data origin, for the record: patent US7417024B2

target: Trypsin (Bos taurus, UniProt P00760); assay: Enzymatic assay, determination of antitrypsin activity (apparent Ki); type: biochemical; details: competitive tight-binding fit
Where a SMILES comes first, the peptide text is derived from it. [ ]: non-standard residue; d: D form.
Reported Metric: Ki (nM)
Kindly provide the numeric value in nM only, without the unit symbol.

input: # Ki lookup, item CC[C@H](C)[C@@H]1NC(=O)[C@H](C)NC(=O)[C@@H]2CCCN2C(=O)[C@H]([C@@H](C)CC)NC(=O)[C@H](CO)NC(=O)[C@H](CCCCN)NC(=O)[C@H]([C@@H](C)O)NC(=O)[C@@H]2CCCN2C(=O)[C@H]2CCCN2C1=O [Ex. 7] (cyclo(TKSIPAI[dP]P))
output: 110

input: Same thing, different compound: CC[C@H](C)[C@@H]1NC(=O)[C@@H]2CCCN2C(=O)[C@@H]2CCCN2C(=O)[C@H]([C@@H](C)CC)NC(=O)[C@H](C)NC(=O)[C@H](CCCCN)NC(=O)[C@H]([C@@H](C)O)NC(=O)[C@@H]2CCCN2C(=O)[C@H]2CCCN2C1=O [Ex. 4] (cyclo(TKAIPPI[dP]P))
output: 700

###

Biological target: Trypsin (Bos taurus, UniProt P00760)
Sequence (P00760 24-246): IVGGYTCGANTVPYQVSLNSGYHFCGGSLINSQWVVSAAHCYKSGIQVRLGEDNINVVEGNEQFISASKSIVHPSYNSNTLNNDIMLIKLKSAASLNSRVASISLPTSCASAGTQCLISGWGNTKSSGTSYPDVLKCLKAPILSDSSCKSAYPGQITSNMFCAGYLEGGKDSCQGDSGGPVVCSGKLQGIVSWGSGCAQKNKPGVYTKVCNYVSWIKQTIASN
Experiment: Enzymatic assay, determination of antitrypsin activity (apparent Ki)
Assay type: biochemical
Details: competitive tight-binding fit
Where a SMILES comes first, the peptide text is derived from it. Bridges are numbered along the chain shown (N, C = ends). [ ]: non-standard residue; d: D form.
Reported Metric: Ki

input: // Ki lookup, key: CC[C@H](C)[C@@H]1NC(=O)[C@@H]2CCCN2C(=O)[C@@H]2CCCN2C(=O)[C@H]([C@@H](C)CC)NC(=O)[C@H](CO)NC(=O)[C@H](Cc2ccccc2)NC(=O)[C@H]([C@@H](C)O)NC(=O)[C@@H]2CCCN2C(=O)[C@H]2CCCN2C1=O [Ex. 11] (cyclo(TFSIPPI[dP]P))
output: > 20000 nM

input: Another: CC[C@H](C)[C@@H]1NC(=O)[C@@H]2CCCN2C(=O)[C@@H]2CCCN2C(=O)[C@H]([C@@H](C)CC)NC(=O)[C@H](CO)NC(=O)[C@H](CCCCN)NC(=O)[C@H]([C@@H](C)O)NC(=O)[C@@H]2CSSC[C@H](NC1=O)C(=O)N[C@@H](Cc1ccccc1)C(=O)N1CCC[C@@H]1C(=O)N1CCC[C@H]1C(=O)N[C@@H](CCCNC(=N)N)C(=O)N2 [Ex. 15] (cyclo(RCTKSIPPICF[dP]P); disulfide 2-10)
output: 21 nM

###

Provide the recorded Ki for the entries that follow.
Biological target: Trypsin (Bos taurus, UniProt P00760)
Sequence (P00760 24-246): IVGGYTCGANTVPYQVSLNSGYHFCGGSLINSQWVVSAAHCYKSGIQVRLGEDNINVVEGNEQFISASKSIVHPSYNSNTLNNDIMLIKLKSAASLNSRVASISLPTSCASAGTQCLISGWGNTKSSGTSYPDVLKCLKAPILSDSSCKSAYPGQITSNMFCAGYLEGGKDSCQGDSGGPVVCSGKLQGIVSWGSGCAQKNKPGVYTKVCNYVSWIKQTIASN
Assay: Enzymatic assay, determination of antitrypsin activity (apparent Ki)
Assay type: biochemical
Details: competitive tight-binding fit
Where a SMILES comes first, the peptide text is derived from it. [ ]: non-standard residue; d: D form.

input: Field: Ki (Trypsin (Bos taurus, UniProt P00760)). Entry: CC[C@H](C)[C@@H]1NC(=O)[C@H](CO)NC(=O)[C@H](CCCCN)NC(=O)[C@H]([C@@H](C)O)NC(=O)[C@@H]2CCCN2C(=O)[C@H]2CCCN2C(=O)[C@H]([C@@H](C)CC)NC(=O)[C@@H]2CCCN2C(=O)[C@H](C)NC1=O [Ex. 6] (cyclo(TKSIAPI[dP]P))
output: > 25000 nM

input: Input CC[C@H](C)[C@@H]1NC(=O)[C@@H]2CCCN2C(=O)[C@@H]2CCCN2C(=O)[C@H]([C@@H](C)CC)NC(=O)[C@H](CO)NC(=O)[C@H](C)NC(=O)[C@H]([C@@H](C)O)NC(=O)[C@@H]2CCCN2C(=O)[C@H]2CCCN2C1=O [Ex. 3] (cyclo(TASIPPI[dP]P))
output: > 10000 nM

input: Consider next the compound CC[C@H](C)[C@@H]1NC(=O)[C@@H]2CCCN2C(=O)[C@@H]2CCCN2C(=O)[C@H]([C@@H](C)CC)NC(=O)[C@H](CO)NC(=O)[C@H](Cc2ccc(O)cc2)NC(=O)[C@H]([C@@H](C)O)NC(=O)[C@@H]2CCCN2C(=O)[C@H]2CCCN2C1=O [Ex. 9] (cyclo(TYSIPPI[dP]P)) in the same way.
output: > 25000 nM
